The measured values listed here are drawn from patent US3956234A.

- assay summary: Static ozone deterioration test, Example 3 chloroprene rubber compound
- assay setup: Table 6, static, 20 % elongation, 1.5 parts added, ozone 90 ± 5 pphm, 50 ± 10°C
Record form. Attribute: Crack-generating time. Fill in for each entry.
Numbers only, in h.

Example entries begin here.
> print(dat)
        compound  output.unit  endpoint.value
1  N#CCCCSCCCC#N            h             195
2    N#CCCSCCC#N            h             200

Below is a list of compounds. For each, state its recorded Crack-generating time.
1. CC(C#N)CSCC(C)C#N (stereo not drawn)
2. CCC(CCCC#N)CSCC(CC)CCCC#N (stereo not drawn)
3. CC(C)SCCC#N
4. CCCCCCCCCCCCCCCCCCSCCC#N

[190, 180, 175, 170]
